# tested-system: T1, HLA-A*02:01 (human)
# T1 construct: MHC monomers first loaded with a UV-sensitive peptide (not identified) that is cleaved and exchanged for the test peptide; captured on streptavidin-coated plates and detected with anti-β2m; also called peptide-receptive MHC molecules; MHC class I
# experimental-protocol: UV-ligand exchange, anti-b2m ELISA; peptide exchange yield grade
reported-endpoint: peptide exchange yield

binder=WLIDKSMEL reported_endpoint="peptide exchange yield" result="≥ 75%"
binder=ILFDDSVFTL reported_endpoint="peptide exchange yield" result="≥ 75%"
binder=GLVDGSSVTV reported_endpoint="peptide exchange yield" result="≥ 75%"
binder=NLADNTILV reported_endpoint="peptide exchange yield" result="≥ 75%"
binder=LLDATHQI reported_endpoint="peptide exchange yield" result="≥ 75%"
binder=SLYDFTGEQMAA reported_endpoint="peptide exchange yield" result="50 to 75%"
binder=LLDTTDVYL reported_endpoint="peptide exchange yield" result="50 to 75%"
binder=AVFDQTVTVI reported_endpoint="peptide exchange yield" result="50 to 75%"
binder=VLDDTLVIF reported_endpoint="peptide exchange yield" result="50 to 75%"
binder=KLAPEDLADLTAL reported_endpoint="peptide exchange yield" result="≥ 75%"

# credit: patent US20220111022A1
